measured target: T1, human BR3 extracellular domain (human, UniProt Q96RJ3 1-61)
T1 construct: biotinylated where used as tracer; also called hBR3-ECD; BR3-ECD
method description: SPR BIAcore-2000, ECD on chip, Fab injected
Reported Kd values follow for various binders

{"binder": "V3-12 Fab (Fab, V domains shown, soluble Fab in SPR) VH: EVQLVESGGGLVQPGGSLRLSCAASGFTISSNSIHWVRQAPGKGLEWVAWITPSDGNTDYADSVKGRFTISADTSKNTAYLQMNSLRAEDTAVYYCARRVCYDRARVCAGAMDYWGQGTLVTVSS VL: DIQMTQSPSSLSASVGDRVTITCRASQDVSTAVAWYQQKPGKAPKLLIYSASFLYSGVPSRFSGSGSGTDFTLTISSLQPEDFATYYCQQSYSTPPTFGQGTKVEIKR", "Kd, nM": 72}
{"binder": "V3-11 Fab (Fab, V domains shown, soluble Fab in SPR) VH: EVQLVESGGGLVQPGGSLRLSCAASGFTISSNSIHWVRQAPGKGLEWVAWITPSDGNTDYADSVKGRFTISADTSKNTAYLQMNSLRAEDTAVYYCARRVCYNNLGVCAGAMDYWGQGTLVTVSS VL: DIQMTQSPSSLSASVGDRVTITCRASQDVSTAVAWYQQKPGKAPKLLIYSASFLYSGVPSRFSGSGSGTDFTLTISSLQPEDFATYYCQQTSTSPPTFGQGTKVEIKR", "Kd, nM": 60.1}
{"binder": "V3-1 Fab (Fab, V domains shown, soluble Fab in SPR) VH: EVQLVESGGGLVQPGGSLRLSCAASGFTISSNSIHWVRQAPGKGLEWVAWITPSDGNTDYADSVKGRFTISADTSKNTAYLQMNSLRAEDTAVYYCARRVCYNRLGVCAGGMDYWGQGTLVTVSS VL: DIQMTQSPSSLSASVGDRVTITCRASQDVSTAVAWYQQKPGKAPKLLIYSASFLYSGVPSRFSGSGSGTDFTLTISSLQPEDFATYYCQQSRITPPTFGQGTKVEIKR", "Kd, nM": 7.9}
{"binder": "V3-13 Fab (Fab, V domains shown, soluble Fab in SPR) VH: EVQLVESGGGLVQPGGSLRLSCAASGFTISRRSIHWVRQAPGKGLEWVAWITPSDGNTDYADSVKGRFTISADTSKNTAYLQMNSLRAEDTAVYYCARRVCYSSVRGCAGAMDYWGQGTLVTVSS VL: DIQMTQSPSSLSASVGDRVTITCRASQDVSTAVAWYQQKPGKAPKLLIYGASNLYSGVPSRFSGSGSGTDFTLTISSLQPEDFATYYCQQSHASPPTFGQGTKVEIKR", "Kd, nM": 1200}
